Measured melting point of individual entries

# annotated cases, reported melting point shown
Lab book: melting point of CC(C)n1nc(-c2c(-c3ccccc3)nn3ccc(OCC(=O)NCCN(C)C)cc23)ccc1=O [Example 58] noted as 117 to 119 °C

Lab book: melting point of CC(C)n1nc(-c2c(-c3ccccc3)nn3ccc(OCCN4CCCC4=O)cc23)ccc1=O [Example 28] noted as 162 to 163 °C

Lab book: melting point of CC(C)n1nc(-c2c(-c3ccccc3)nn3ccc(N4CCN(c5ccccc5)CC4)cc23)ccc1=O [Example 99] noted as > 240 °C

Continuing:
Lab book: melting point of CC(C)n1nc(-c2c(-c3ccccc3)nn3ccc(N4CCN(C(=O)OC(C)(C)C)CC4)cc23)ccc1=O [Example 104] noted as 163 to 164 °C

Lab book: melting point of COC1CCN(c2ccn3nc(-c4ccccc4)c(-c4ccc(=O)n(C(C)C)n4)c3c2)CC1 [Example 106] noted as 177 to 178 °C

Lab book: melting point of CCOC(=O)COc1ccn2nc(-c3ccccc3)c(-c3ccc(=O)n(C(C)C)n3)c2c1 [Example 38] noted as 193 to 194 °C

Lab book: melting point of CC(C)CCOc1ccn2nc(-c3ccccc3)c(-c3ccc(=O)n(C(C)C)n3)c2c1 [Example 22] noted as 163 to 163.5 °C

Lab book: melting point of CC(C)n1nc(-c2c(-c3ccccc3)nn3ccc(OCCN(C)C)cc23)ccc1=O [Example 4] noted as 138 to 139 °C

###

REPORTED_METRIC: melting point

Lab book: melting point of `CC(C)n1nc(-c2c(-c3ccccc3)nn3ccc(N4C[C@@H](C)O[C@@H](C)C4)cc23)ccc1=O` noted as 176 to 177 °C

Lab book: melting point of `CC(C)n1nc(-c2c(-c3ccccc3)nn3ccc(OC4CCOCC4)cc23)ccc1=O` noted as 210.5 to 211 °C

Lab book: melting point of `CC(C)n1nc(-c2c(-c3ccccc3)nn3ccc(C(=O)NCc4cccnc4)cc23)ccc1=O` noted as 192 to 193 °C

Lab book: melting point of `CC(=O)Nc1ccn2nc(-c3ccccc3)c(-c3ccc(=O)n(C(C)C)n3)c2c1` noted as 221 to 222 °C

Lab book: melting point of `CCOCCNC(=O)COc1ccn2nc(-c3ccccc3)c(-c3ccc(=O)n(C(C)C)n3)c2c1` noted as 126.5 to 127.5 °C

Lab book: melting point of `CC(C)n1nc(-c2c(-c3ccccc3)nn3ccc(C(=O)NCCOc4ccccc4)cc23)ccc1=O` noted as 156 to 157 °C

Lab book: melting point of `COc1ccn2nc(-c3ccccc3)c(-c3ccc(=O)n(C4CCN(C)CC4)n3)c2c1` noted as 154 to 155 °C

Continuing:
Lab book: melting point of `CCN(CC)CCOc1ccn2nc(-c3ccccc3)c(-c3ccc(=O)n(C(C)C)n3)c2c1` noted as 92.5 to 94.5 °C

###

Measured melting point of individual entries

# annotated cases, reported melting point shown
Lab book: melting point of `CC(C)n1nc(-c2c(-c3ccccc3)nn3ccc(N4CCC(O)CC4)cc23)ccc1=O` noted as 213 to 215 °C

Lab book: melting point of `CC(C)n1nc(-c2c(-c3ccccc3)nn3ccc(OCCC4CCCCC4)cc23)ccc1=O` noted as 146 to 147 °C

Lab book: melting point of `CC(C)n1nc(-c2c(-c3ccccc3)nn3ccc(Oc4ccc([N+](=O)[O-])cn4)cc23)ccc1=O` noted as 182 to 183.5 °C

Continuing:
Lab book: melting point of `CC(C)n1nc(-c2c(-c3ccccc3)nn3ccc(C#Cc4ccccc4)cc23)ccc1=O` noted as 185 to 186 °C

Lab book: melting point of `CC(C)n1nc(-c2c(-c3ccccc3)nn3ccc(C#N)cc23)ccc1=O` noted as 202 to 203 °C

Lab book: melting point of `CC(C)n1nc(-c2c(-c3ccccc3)nn3ccc(OCC(=O)N4CCN(C(=O)N(C)C)CC4)cc23)ccc1=O` noted as 151 to 152 °C

Lab book: melting point of `CC(C)n1nc(-c2c(-c3ccccc3)nn3ccc(Oc4ccccn4)cc23)ccc1=O` noted as 140.5 to 141.5 °C

Lab book: melting point of `COc1cccc(CNC(=O)COc2ccn3nc(-c4ccccc4)c(-c4ccc(=O)n(C(C)C)n4)c3c2)c1` noted as 166 to 167.5 °C

Lab book: melting point of `CCOc1cccn2nc(-c3ccccc3)c(-c3ccc(=O)n(C(C)C)n3)c12` noted as 157 to 158 °C

Lab book: melting point of `CC(C)n1nc(-c2c(-c3ccccc3)nn3ccc(C(=O)NC4CC4)cc23)ccc1=O` noted as 184 to 185 °C
